Source of measurements: patent US20140256663A1

So I've got a bunch of molecules here, and I need their IC50 values.
- Tested on: Candida kruzei
- method summary: Antifungal activity in vitro by flow cytometry, Candida kruzei
- Type: cell-based
- conditions used: 24 h at 37° C., read-out: CF50 Candida kruzei

Answer briefly: IC50 recorded on Candida kruzei for C[C@@H]1[C@H](O)[C@@H](C)/C=C/C=C/C=C/C=C/C=C/C=C/C=C/[C@H](O[C@@H]2O[C@H](C)[C@@H](O)[C@H](N)[C@@H]2O)C[C@@H]2O[C@](O)(C[C@@H](O)C[C@@H](O)[C@H](O)CC[C@@H](O)C[C@@H](O)CC(=O)O[C@H]1C)C[C@H](O)[C@H]2C(=O)O
> 10 µM

Answer briefly: IC50 recorded on Candida kruzei for COC(=O)C(Cc1c[nH]c2ccccc12)NC(=O)[C@@H]1C(O)C[C@@]2(O)C[C@@H](O)C[C@@H](O)[C@H](O)CC[C@@H](O)C[C@@H](O)CC(=O)OC(C)C(C)[C@H](O)C(C)/C=C/C=C/C=C/C=C/C=C/C=C/C=C/[C@H](OC3OC(C)C(O)C(N)C3O)CC1O2 (stereo partly drawn) [A-6, N-(L)-tryptophanamide of AmB]
> 100 µM

Answer briefly: IC50 recorded on Candida kruzei for CC1OC(O[C@H]2/C=C/C=C/C=C/C=C/C=C/C=C/C=C/C(C)[C@@H](O)C(C)C(C)OC(=O)C[C@H](O)C[C@H](O)CC[C@@H](O)[C@H](O)C[C@H](O)C[C@]3(O)CC(O)[C@@H](C(=O)NC4CCCCC4)C(C2)O3)C(O)C(N)C1O (stereo partly drawn) [A-2, N-cycloheximide of AmB]
> 100 µM
